Where do these numbers come from? They come from ChEMBL document CHEMBL4715724.

Test system: PC-3
assay.name: cells
Type: functional
experimental.parameters: Homo sapiens, time 48 hrs
Description: Growth inhibition of human PC-3 cells incubated for 48 hrs by sulforhodamine B assay
The entries below are paired with their reported GI50.

> print(dat)
                            compound.smiles   result
1  CN1CCN(CCCOc2cccc3nc(Nc4ccc(Cl)c(F)c4)ccc23)CC1  1760 nM
2  CN1CCN(CCCOc2cccc3nc(Nc4cccc(Cl)c4)ccc23)CC1  1810 nM
3  Fc1cc(Nc2ccc3c(OCCCN4CCOCC4)cccc3n2)ccc1Cl  2080 nM

GI50 reported for this molecule Clc1cc(Cl)cc(Nc2ccc3c(OCCCN4CCOCC4)cccc3n2)c1 : 1940 nM

----------
Reported GI50 values follow for various compounds
System: HOP-62
assay.name: cells
Assay type: functional
experimental.parameters: Homo sapiens, time 48 hrs
Description: Growth inhibition of human HOP-62 cells incubated for 48 hrs by sulforhodamine B assay
Kindly provide the numeric value in µM only, without the unit symbol.

// solved cases for GI50 follow
> print(dat)
                            compound.smiles  unit.spec  quantitative.readout
1  FC(F)(F)c1cc(Nc2ccc3c(OCCCN4CCOCC4)cccc3n2)ccc1Cl         µM                  1.87
2  Clc1cc(Cl)cc(Nc2ccc3c(OCCCN4CCOCC4)cccc3n2)c1         µM                  2.29
3  CC(C)c1ccc(Nc2ccc3c(OCCCN4CCN(C)CC4)cccc3n2)cc1         µM                  11.9

For record CN1CCN(CCCOc2cccc3nc(Nc4ccc(Cl)c(C(F)(F)F)c4)ccc23)CC1 the listed GI50 is 1.7

Entry CN1CCN(CCCOc2cccc3nc(Nc4cccc(Cl)c4)ccc23)CC1 — recorded GI50 = 1.72
